assaySummary: qHTS for identification of novel therapeutic agents for treatment of microphthalmiaassociated transcription factor (MiT) renal cell carcinoma (RCC) (AID 1963991);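 further: curves scaled with 100% = DMSO viability and 0% = empty wells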
setupConditions: TFE3-RCC viability, CellTiter-Glo, 48 h; measured here: UOK124 Z-AUC; stronger effect = lower value
Inconclusive results are not listed.
quantity: z-score

compound | measurement
N[C@@H](Cc1cc(I)c(Oc2cc(I)c(O)c(I)c2)c(I)c1)C(=O)O | 0.682
CC(C)c1ccc2oc3nc(N)c(C(=O)O)cc3c(=O)c2c1 | 0.464
CCCCN(CCCC)CCC(O)c1cc2c(Cl)cc(Cl)cc2c2cc(C(F)(F)F)ccc12 (stereo not drawn) | 0.539

----------
assaySummary: Drug repurposing screens with cells derived from glioblastoma tumor samples (AID 1345199); further: potency means the concentration at half of the fitted maximal effect; nearly all actives have a fitted effect of over 40% in size
setupConditions: GBM patient neurospheres viability, ATP luminescence, 48 h; tumour line D
Records with an inconclusive call do not appear. Activity calls are given as the source filed them. The call rests on the fitted dose curve; in most records, active means well fitted inhibition curve with a large enough effect; inconclusive means small, poorly fitted or top-dose-only effect; inactive means flat fitted curve, though single readings scatter.

compound | Potency
O=C1c2ccccc2-c2n[nH]c3cccc1c23 | 12.6 µM (active)
Cc1ccc(Nc2nccc(N(C)c3ccc4c(C)n(C)nc4c3)n2)cc1S(N)(=O)=O | 7.08 µM (active)
CN1CCC(=C2c3ccccc3CCc3sccc32)CC1 | 12.6 µM (active)
CCCCC(CC)COC(=O)C(C#N)=C(c1ccccc1)c1ccccc1 (stereo unspecified) | 10 µM (active)
Clc1ccc(C(Cn2ccnc2)OCc2c(Cl)cccc2Cl)c(Cl)c1 (stereo unspecified) | 7.08 µM (active)
Cc1ccc(NC(=O)c2ccc(CN3CCN(C)CC3)cc2)cc1Nc1nccc(-c2cccnc2)n1 | 12.6 µM (active)

----------
System: PA-1
assaySummary: Primary qHTS to identify gynecologic anti-cancer compounds using libraries of approved drugs and bioactive compounds (AID 1345084); further: nearly all actives have a fitted effect of over 55% in size; further: potency means the concentration at half of the fitted maximal effect
setupConditions: Gynecologic cancer cell panel viability, ATPlite luminescence, 48 h; series mostly up to 57.5 µM
Inconclusive results are not listed. Active and inactive are the calls of the source. The call rests on the fitted dose curve; in most records, active means well fitted cell-killing curve with a large enough effect; inconclusive means small, poorly fitted or top-dose-only effect, or effect the other way; inactive means flat fitted curve, though single readings scatter.

compound | Potency
CCCCc1ccc2nc(NC(=O)OC)[nH]c2c1 | 282 nM (active)
CC1(C)CCC(C)(C)c2cc(NC(=O)c3ccc(C(=O)O)cc3)ccc21 | inactive
O=C(O)c1cn(-c2ccc(F)cc2)c2cc(N3CCNCC3)c(F)cc2c1=O | inactive
O=C(O)CCNC(=O)c1ccc(N=Nc2ccc(O)c(C(=O)O)c2)cc1 | inactive
COc1ccc2cc([C@H](C)C(=O)O)ccc2c1 | inactive
CC1=C(C)C(=O)C(C(CCCCCC(=O)O)c2ccccc2)=C(C)C1=O (stereo unspecified) | inactive
O=C(OC1C[C@H]2CC[C@@H](C1)[N+]21CCCC1)C(O)(c1ccccc1)c1ccccc1 (stereo partly specified) | inactive
COc1c(O)cc2c(c1O)[C@@H]1O[C@H](CO)[C@@H](O)[C@H](O)[C@H]1OC2=O | inactive
CC(S)C(=O)NCC(=O)O (stereo unspecified) | inactive
COc1ccccc1N1CCN(CCN(C(=O)C2CCCCC2)c2ccccn2)CC1 | inactive
Cc1cc(C2CCCCC2)n(O)c(=O)c1 | 2000 nM (active)

----------
Test system: CP315
assaySummary: qHTS profiling for inhibitors of Plasmodium falciparum proliferation (AID 504749); further: nearly all actives have a fitted effect of over 60% in size
setupConditions: P. falciparum in erythrocytes, SYBR Green DNA, 72 h; series mostly up to 28.7 µM
Results filed as inconclusive are left out. Calls of active or inactive are those of the source. Calls come from the whole dose curve; as a rule, active = well fitted inhibition curve with a large enough effect; inconclusive = small, poorly fitted or top-dose-only effect; inactive = flat fitted curve, though single readings scatter.
Outcomes: yes (1) = active, no (0) = inactive

molecule | targetOrSystem | class
Nc1cc(C(Cl)=C(Cl)Cl)c(S(N)(=O)=O)cc1S(N)(=O)=O | CP315 | no (0)
COc1ccc2cc([C@H](C)C(=O)O)ccc2c1 | CP315 | no (0)
C=C(c1ccc(C(=O)O)cc1)c1cc2c(cc1C)C(C)(C)CCC2(C)C | CP315 | no (0)
C[Se]CCC(N)C(=O)O (stereo not drawn) | CP315 | no (0)
COCCCOc1ccnc(CS(=O)c2nc3ccccc3[nH]2)c1C (stereo not drawn) | CP315 | no (0)
Nc1ccn([C@@H]2O[C@H](CO)[C@@H](O)C2O)c(=O)n1 (stereo partly drawn) | CP315 | no (0)
Nc1cccc2c1CN(C1CCC(=O)NC1=O)C2=O (stereo not drawn) | CP315 | no (0)
CC1(C)CCC(C)(C)c2cc(NC(=O)c3ccc(C(=O)O)cc3)ccc21 | CP315 | no (0)
CCCOc1ccc2nc(NC(=O)OC)[nH]c2c1 | CP315 | no (0)
O=C1c2ccccc2-c2n[nH]c3cccc1c23 | CP315 | no (0)
COC(=O)C1=C(C)NC(C)=C(C(=O)OCCCN2CCC(c3ccccc3)(c3ccccc3)CC2)C1c1cccc([N+](=O)[O-])c1 (stereo not drawn) | CP315 | yes (1)
C[C@]12CCC(=O)C=C1CC[C@@H]1[C@H]2[C@@H](O)C[C@@]2(C)[C@H]1CC[C@]2(O)C(=O)CO | CP315 | no (0)
CN1CCC(=C2c3ccccc3CCc3sccc32)CC1 | CP315 | no (0)
Cn1c(NCCN(CCO)CCCc2ccc([N+](=O)[O-])cc2)cc(=O)n(C)c1=O | CP315 | no (0)
O=C1CCc2ccc(OCCCCN3CCN(c4cccc(Cl)c4Cl)CC3)cc2N1 | CP315 | no (0)
CCCCc1ccc2nc(NC(=O)OC)[nH]c2c1 | CP315 | no (0)
CCN(CC)CCOc1ccc(Cc2ccccc2)cc1 | CP315 | no (0)
C[C@H](Cn1cnc2c(N)ncnc21)OCP(=O)(O)O | CP315 | no (0)
O=c1oc2cc(O)ccc2s1 | CP315 | no (0)
Cc1cccc(C)c1OCC(=O)N[C@@H](Cc1ccccc1)[C@@H](O)C[C@H](Cc1ccccc1)NC(=O)[C@H](C(C)C)N1CCCNC1=O | CP315 | yes (1)
Cc1cc(C2CCCCC2)n(O)c(=O)c1 | CP315 | yes (1)
CC1(C)NC(=O)N(c2ccc([N+](=O)[O-])c(C(F)(F)F)c2)C1=O | CP315 | no (0)
CCOC(=O)c1c(C)n(C)c2ccc(O)cc12 | CP315 | no (0)

----------
assaySummary: Cell Viability - LYMP2-026 (AID 989);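 further: cells exposed to compound for 24 h at 37 °C; nearly all actives have a fitted effect of over 50% in size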
setupConditions: LYMP2-026 lymphoblastoid cell viability, qHTS; series mostly up to 92.2 µM
Inconclusive results are not listed. Calls of active or inactive are those of the source. Calls follow the shape of the dose curve; as a rule, active = well fitted cell-killing curve with a large enough effect; inconclusive = small, poorly fitted or top-dose-only effect; inactive = flat fitted curve, though single readings scatter. Peptide text beside a SMILES is read from it.

compound | outcome
CCCc1cc(=O)[nH]c(=S)[nH]1 | inactive
COC(=O)[C@H](Cc1ccccc1)NC(=O)[C@@H](N)CC(=O)O (H-Asp-Phe-OMe) | inactive
Cc1ccc(C)c(OCCCC(C)(C)C(=O)O)c1 | inactive
c1ccc2[nH]c(-c3cscn3)nc2c1 | inactive
COc1c2occc2cc2ccc(=O)oc12 | inactive
NS(=O)(=O)c1cc(C(=O)O)c(NCc2ccco2)cc1Cl | inactive

----------
System: ATS189
assaySummary: qHTS profiling for inhibitors of Plasmodium falciparum proliferation (AID 504749); further: nearly all actives have a fitted effect of over 60% in size
setupConditions: P. falciparum in erythrocytes, SYBR Green DNA, 72 h; series mostly up to 28.7 µM
Results filed as inconclusive are left out. Active and inactive are the calls of the source. Calls follow the shape of the dose curve; as a rule, active = well fitted inhibition curve with a large enough effect; inconclusive = small, poorly fitted or top-dose-only effect; inactive = flat fitted curve, though single readings scatter.
Outcomes: label 1 = active, label 0 = inactive

molecule | class
Nc1ccc(S(N)(=O)=O)cc1 | label 0
CN(C)C(=O)COC(=O)Cc1ccc(OC(=O)c2ccc(N=C(N)N)cc2)cc1 | label 0
Cc1c(OCC(F)(F)F)ccnc1CS(=O)c1nc2ccccc2[nH]1 (configuration not stated) | label 0
O=C(NC(Cc1cc(=O)[nH]c2ccccc12)C(=O)O)c1ccc(Cl)cc1 (configuration not stated) | label 0
CCCCN(CCCC)CCC(O)c1cc2c(Cl)cc(Cl)cc2c2cc(C(F)(F)F)ccc12 (configuration not stated) | label 1
CCc1nc(N)nc(N)c1-c1ccc(Cl)cc1 | label 0
CCOC(=O)c1c(C)n(C)c2ccc(O)cc12 | label 0
CCCOc1ccc2nc(NC(=O)OC)[nH]c2c1 | label 0
COc1cc(OC)c(C(=O)CCCN2CCCC2)c(OC)c1 | label 0
O=C1c2ccccc2-c2n[nH]c3cccc1c23 | label 0
Cc1ccc(C)c(OCCCC(C)(C)C(=O)O)c1 | label 0
NNc1nncc2ccccc12 | label 1

----------
Test system: PC15
assaySummary: qHTS profiling for inhibitors of Plasmodium falciparum proliferation (AID 504749); further: nearly all actives have a fitted effect of over 60% in size
setupConditions: P. falciparum in erythrocytes, SYBR Green DNA, 72 h; series mostly up to 28.7 µM
Records with an inconclusive call do not appear. Activity calls are given as the source filed them. Calls follow the shape of the dose curve; as a rule, active = well fitted inhibition curve with a large enough effect; inconclusive = small, poorly fitted or top-dose-only effect; inactive = flat fitted curve, though single readings scatter.
Outcomes: active, inactive

compound | class
CC(C)[C@H](N)C(=O)OCCOCn1cnc2c(=O)[nH]c(N)nc21 | inactive
O=C(O)c1cn(-c2ccc(F)cc2)c2cc(N3CCNCC3)c(F)cc2c1=O | inactive
CCCOc1ccc2nc(NC(=O)OC)[nH]c2c1 | inactive
O=C(NCCO[N+](=O)[O-])c1cccnc1 | inactive
CC1(C)NC(=O)N(c2ccc([N+](=O)[O-])c(C(F)(F)F)c2)C1=O | inactive
Cc1cc(=O)c2c(O)c3c(O)cc(=O)c4c3c3c(cc(O)c1c23)C(C)(C)C=4O | active
C=C(c1ccc(C(=O)O)cc1)c1cc2c(cc1C)C(C)(C)CCC2(C)C | inactive
CC(C)(S)[C@@H](N)C(=O)O | inactive
N[C@@H](Cc1cc(I)c(Oc2cc(I)c(O)c(I)c2)c(I)c1)C(=O)O | inactive
O=c1oc2cc(O)ccc2s1 | inactive
CC1=C(C)C(=O)C(C(CCCCCC(=O)O)c2ccccc2)=C(C)C1=O (stereo unspecified) | inactive

These data points were gathered from PubChem BioAssay (NCATS).
